- Test system: SF-295 CNS
- EXPERIMENT SUMMARY: NCI tumour cell line growth inhibition, 48 h
Reported TGI values are given for each entry in this list.
MEASUREMENT NAME: TGI

1. COC(=O)[C@]1(c2cc3ccccc3n2S(=O)(=O)c2ccccc2)CC2CN(C(=O)OCc3ccccc3)C1C1OC(C)(C)OC21 (stereo partly specified); > 100 µM
2. CC(=O)CC1(CBr)Nc2ccc([N+](=O)[O-])cc2NC1=O (stereo unspecified); > 100 µM
3. C[n+]1cccc2ccc3cccnc3c21; > 100 µM
4. COc1cc2c(/C=C3/C(=O)Nc4ccccc43)c(Cl)n(Cc3ccc(Cl)cc3)c2cc1C; 3.06 µM
5. COc1ccc(-c2ccc(C3CC(c4ccccc4)=NN3)o2)c([N+](=O)[O-])c1 (stereo unspecified); > 100 µM
6. N#Cc1nc(CCc2nc(C#N)c(N)o2)oc1N; > 10 µM
